Just for reference, ChEMBL document CHEMBL1201862 is where these values come from.

test system: M14; experiment: NCI tumour cell line growth inhibition, 48 h
Calls of active or inactive are those of the source. Cut-off read from the data, not from the text of the source: active = GI50 up to about 1.1 µM and inactive = higher.
recorded_metric: GI50

[
  {
    "compound": "CN(C)/C=C/C(=O)c1cccc(C(=O)/C=C/N(C)C)n1",
    "recorded_result": "> 100 µM (inactive)"
  },
  {
    "compound": "COc1ccc2c(c1)C(=O)C1CC(=O)CCC21 (stereo not drawn)",
    "recorded_result": "> 100 µM (inactive)"
  },
  {
    "compound": "C(=N\\c1nc2cc3sc(/N=C/c4cccs4)nc3cc2s1)/c1cccs1",
    "recorded_result": "> 100 µM (inactive)"
  }
]

* * *

GI50 for assorted molecules
tested on: SNB-19; test: NCI tumour cell line growth inhibition, 48 h
Calls of active or inactive are those of the source. Cut-off read from the data, not from the text of the source: active = GI50 up to about 1.1 µM and inactive = higher.

[
  {
    "molecule": "O=C(Nc1ccccc1)Oc1ccccc1C1CCCCC1",
    "GI50": "63.1 µM (inactive)"
  },
  {
    "molecule": "COc1ccccc1NC1=NCC(C)S1 (configuration not stated)",
    "GI50": "> 100 µM (inactive)"
  },
  {
    "molecule": "Cn1c(=O)c(Cl)c(N=[N+]=[N-])c2ccccc21",
    "GI50": "> 100 µM (inactive)"
  },
  {
    "molecule": "O=C1C(=Cc2ccccc2[N+](=O)[O-])N=C(c2ccccc2)N1n1c(-c2ccccc2)nc2ccccc2c1=O",
    "GI50": "35.3 µM (inactive)"
  },
  {
    "molecule": "Cc1cccc(Nc2cn(CCOc3ccccc3)c(=O)n(CCOc3ccccc3)c2=O)c1",
    "GI50": "> 100 µM (inactive)"
  },
  {
    "molecule": "O=C(O)CNC(=O)C1NC(C(F)(F)F)(C(F)(F)F)OC1(C(F)(F)F)C(F)(F)F (configuration not stated)",
    "GI50": "> 100 µM (inactive)"
  },
  {
    "molecule": "COc1cc(CC(C)=O)cc(OC)c1",
    "GI50": "> 100 µM (inactive)"
  },
  {
    "molecule": "COc1nc(N=P(c2ccccc2)(c2ccccc2)c2ccccc2)cc(=O)n1C",
    "GI50": "> 100 µM (inactive)"
  },
  {
    "molecule": "Nc1nc(O)c2[nH]cnc2[n+]1[O-]",
    "GI50": "> 100 µM (inactive)"
  },
  {
    "molecule": "C=C1C(=O)O[C@@H]2/C=C(\\C)CC/C=C(/COC(C)=O)C[C@@H](OC(C)=O)[C@@H]12",
    "GI50": "29.2 µM (inactive)"
  },
  {
    "molecule": "Cc1nn(-c2ccccc2)c2c1N=C(C(=O)O)CC(c1ccccc1)=N2",
    "GI50": "> 10 µM (inactive)"
  },
  {
    "molecule": "COc1nc2c(c(=O)[nH]1)N=C(c1ccccc1)CC(c1ccccc1)N2 (configuration not stated)",
    "GI50": "> 100 µM (inactive)"
  },
  {
    "molecule": "O=C(SCc1cccc2ccccc12)c1ccc(Cl)cc1",
    "GI50": "> 100 µM (inactive)"
  },
  {
    "molecule": "C=CC(=O)N1C/C(=C\\c2ccc(OC)cc2)C(=O)/C(=C/c2ccc(OC)cc2)C1",
    "GI50": "7.18 µM (inactive)"
  },
  {
    "molecule": "O=C(O)c1c([N+](=O)[O-])cc(C(F)(F)F)cc1[N+](=O)[O-]",
    "GI50": "> 100 µM (inactive)"
  },
  {
    "molecule": "O=C1O[C@H](c2ccccc2)[C@@H]2CC3(CCN12)OCCO3",
    "GI50": "> 100 µM (inactive)"
  },
  {
    "molecule": "N#Cc1ccc(Oc2cccc(Oc3ccccc3)c2)cc1C#N",
    "GI50": "28.5 µM (inactive)"
  }
]
